Assay: qHTS assay to identify small molecule agonists of the sonic hedgehog signaling (Shh) pathway - cell viability counter screen (AID 1259366); also: nearly all actives have a fitted effect of over 50% in size
Conditions: NIH/3T3 Gli1-Luc viability, CellTiter-Fluor, 24 h; series mostly up to 92.4 µM
Inconclusive results are not listed. The source made the active and inactive calls. Calls follow the shape of the dose curve; as a rule, active = well fitted cell-killing curve with a large enough effect in the repeat runs; inconclusive = weak or mixed curves, or effect the other way; inactive = flat fitted curve, though single readings scatter.
The categories you may choose from are active, inactive

Returns: the outcome recorded for CCc1cccc(CC)c1NC(=O)C(=O)O in this assay.
inactive

Now try Clc1ccccc1CN1CCc2sccc2C1 .
inactive

For CC(C)(C)c1n[nH]c(=O)n(N)c1=O then?
inactive

Further, for CCCCC(CC)COC(=O)c1ccc(O)cc1 (stereo unspecified) ?
inactive

And the next one, COCC(=O)O[C@]1(CCN(C)CCCc2nc3ccccc3[nH]2)CCc2cc(F)ccc2[C@@H]1C(C)C ?
active

Also check CCCCNc1c(C(=O)OCC)c(C)nc2c1cnn2CC
inactive

====

Test: qHTS assay to identify small molecule agonists of the estrogen related receptor (ERR) signaling pathway from Tox21 library (AID 1224849); also: % is scaled to controls: 0 for no effect and ±100 for the full control effect; nearly all actives have a fitted effect of over 15% in size
Conditions: ERR reporter cell line, ONE-Glo luciferase, 18 h; at 92.4 µM (top of the series) unless noted
Calls of active or inactive are those of the source. Calls follow the shape of the full dose curve.
ASSAY_READOUT: activity change, positive = activation

Consider the compound CCCN(CCc1cccs1)[C@H]1CCc2c(O)cccc2C1 and give its measured activity change, positive = activation.
-19.8% [at 42.5 µM] (inactive)

Param item: Cc1c(C)n(Cc2ccccc2)c2ccc(C(=O)OCCN(C)C)cc12
-7.81% [at 42.5 µM] (inactive)

Check C[C@]12CC[C@H]3C(=CCc4cc(O)ccc43)[C@@H]1CCC2=O too.
-51.5% (inactive)

Next up: CC(C)CCOCCC(C)C
-1.03% (inactive)

And what about the compound S=P(N1CC1)(N1CC1)N1CC1 ?
-21.7% (inactive)

Check Oc1c(Br)cc(Br)c2cccnc12 too.
-61.3% [at 42.5 µM] (inactive)

Another compound to look at: Cc1ccc(CCn2c3c(c4cc(Cl)ccc42)CN(C)CC3)cn1
48.3% [at 42.5 µM] (active)

CCCCCCCCCCOCC(O)CN (stereo not drawn) , same question.
-64% [at 42.5 µM] (inactive)

Moving on to CCOC(=O)CC(C)O (stereo not drawn)
-9.04% (inactive)

Consider next the compound N[C@@H](CSSC[C@H](N)C(=O)O)C(=O)O in the same way.
-3.33% [at 0.349 µM] (inactive)

What do you get for CCOC(=O)C1=C(C)NC(C)=C(C(=O)OCC)C1c1ccccc1/C=C/C(=O)OC(C)(C)C ?
-56.8% [at 42.5 µM] (inactive)

Follow-up entry: Clc1cc(Cl)c(-c2c(Cl)c(Cl)cc(Cl)c2Cl)cc1Cl
21.1% [at 42.5 µM] (inactive)

Now try C/C=C/C(=O)C1=C(C)CCCC1(C)C .
-5.63% (inactive)

Cool, now COC(=O)[C@]1(C)CCC[C@@]2(C)[C@H]1CC=C1C=C(C(C)C)CC[C@@H]12
-22.1% (inactive)

Request: CC(=O)OC(OC(C)=O)c1ccc([N+](=O)[O-])o1
-81.4% (inactive)

Queued: CCCCCCCC(=O)OCC
0.783% (inactive)

Then what about the compound c1cc[nH]c1 ?
-5.69% (inactive)

Subsequent entry: CCC1CCCCC1
11.4% (inactive)

Taken from PubChem BioAssay (Tox21).
